# Protocol Summary: chemical genetic growth profiling, strain panel (AID 1159580);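 also: tested at 20 µM; growth read once vehicle control cultures reached saturation at 30 °C; lower values mean less growth of the strain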
# Condition Info: S. cerevisiae deletion strains, growth OD, locus YLL001W, strain dnm1
Hit rate of the full screen: of about 5,500 compounds, about 2,000 (36%) were called active. Roughly 18% stayed inconclusive and do not appear here. Rule as the data show it: active = normalized growth mostly below about 0.91 (no sharp cut-off); inconclusive = no clear call, values can overlap the other calls; inactive = mostly above about 0.92. The list shows a part of the results.
Respond with a class label; see Yes for active, No for inactive

# count of solved cases: 4
1. COC1=CC(=O)C(C(=O)c2ccccc2)=CC1=O | No
2. C[C@]12C=CC(=O)C=C1CCC1C2[C@@H](O)C[C@@]2(C)C1CC[C@]2(O)C(=O)COP(=O)(O)O (stereo not given in full) | No
3. COC1=CC(=O)C(O)=C/C1=C\C=C\c1ccccc1 | Yes
4. COc1ccccc1/C=C\C(=O)O | No

Lab note: next compound to report on.
Hi, sorry to bother you, what did the test record for O=C(OC1Cc2c(O)cc(O)cc2OC1c1cc(=O)c(O)c2c(O)c(O)cc(C3Oc4cc(O)cc(O)c4CC3O)c2c1)c1cc(O)c(O)c(O)c1 (stereo not given) ?
No

Reference source for all entries: PubChem BioAssay AID1159580
